Where do these numbers come from? They come from PubChem BioAssay AID1845210.

Tested on: NCI-H226 complex tumor spheroids, viability
ASSAY_METHOD_TEXT: Anticancer human tumor NCI-H226 cell line growth inhibition;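 further: spheroids exposed to compound for 7 days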
CONDITION_PARAMETERS: curve of first compound; second compound 100 µM
READOUT_TYPE: IC50

A selection of reference data follows.
{"MOLECULE": "[2H]c1nc(C)nc([2H])c1-c1cc(NC[C@@H](C)c2cccc3c(C(=O)NC)ccnc23)ncn1 + Cn1nnc2c(C(N)=O)ncn2c1=O", "READOUT_TYPE": "IC50", "EXPERIMENTAL_RESULT": "> 10 µM"}
{"MOLECULE": "CC(C)n1c(=O)n(C)c2cnc3cc(F)c(-c4ccc(OCCCN5CCCCC5)nc4)cc3c21 + Cn1nnc2c(C(N)=O)ncn2c1=O", "READOUT_TYPE": "IC50", "EXPERIMENTAL_RESULT": "> 10 µM"}
{"MOLECULE": "COc1cc(C)[nH]c(=O)c1CN1CCc2c(Cl)cc(C(OC)C3COC3)c(Cl)c2C1=O (centres undefined) + Cn1nnc2c(C(N)=O)ncn2c1=O", "READOUT_TYPE": "IC50", "EXPERIMENTAL_RESULT": "> 10 µM"}

Consider the additional molecule presented here.
Sample O=C(c1cc(Cc2n[nH]c(=O)c3ccccc23)ccc1F)N1CCN(C(=O)C2CC2)CC1 + Cn1nnc2c(C(N)=O)ncn2c1=O — what was its IC50? > 30 µM
